tgt: Insulin-like growth factor 1 receptor (Homo sapiens, UniProt P08069)
Sequence (P08069 31-736 limits assumed): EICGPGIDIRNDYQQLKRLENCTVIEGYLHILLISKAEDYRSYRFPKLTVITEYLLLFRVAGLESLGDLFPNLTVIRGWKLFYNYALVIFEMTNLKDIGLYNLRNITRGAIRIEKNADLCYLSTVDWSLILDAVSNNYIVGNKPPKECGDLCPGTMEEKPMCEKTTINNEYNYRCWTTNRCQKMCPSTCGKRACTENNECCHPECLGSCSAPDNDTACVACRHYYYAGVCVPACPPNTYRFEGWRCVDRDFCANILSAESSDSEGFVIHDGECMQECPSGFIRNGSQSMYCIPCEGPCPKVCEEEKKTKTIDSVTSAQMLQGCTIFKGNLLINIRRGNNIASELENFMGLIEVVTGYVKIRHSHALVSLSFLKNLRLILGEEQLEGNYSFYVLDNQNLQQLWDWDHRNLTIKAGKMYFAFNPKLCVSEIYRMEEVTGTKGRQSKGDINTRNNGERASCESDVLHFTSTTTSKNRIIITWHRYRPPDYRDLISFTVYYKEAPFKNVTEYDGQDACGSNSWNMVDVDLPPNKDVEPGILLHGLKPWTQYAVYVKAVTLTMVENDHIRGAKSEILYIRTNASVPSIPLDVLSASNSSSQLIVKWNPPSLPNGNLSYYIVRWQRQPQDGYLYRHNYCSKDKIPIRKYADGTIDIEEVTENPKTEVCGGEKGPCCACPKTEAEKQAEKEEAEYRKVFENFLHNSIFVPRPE
Sequence (P08069 741-1367 limits assumed): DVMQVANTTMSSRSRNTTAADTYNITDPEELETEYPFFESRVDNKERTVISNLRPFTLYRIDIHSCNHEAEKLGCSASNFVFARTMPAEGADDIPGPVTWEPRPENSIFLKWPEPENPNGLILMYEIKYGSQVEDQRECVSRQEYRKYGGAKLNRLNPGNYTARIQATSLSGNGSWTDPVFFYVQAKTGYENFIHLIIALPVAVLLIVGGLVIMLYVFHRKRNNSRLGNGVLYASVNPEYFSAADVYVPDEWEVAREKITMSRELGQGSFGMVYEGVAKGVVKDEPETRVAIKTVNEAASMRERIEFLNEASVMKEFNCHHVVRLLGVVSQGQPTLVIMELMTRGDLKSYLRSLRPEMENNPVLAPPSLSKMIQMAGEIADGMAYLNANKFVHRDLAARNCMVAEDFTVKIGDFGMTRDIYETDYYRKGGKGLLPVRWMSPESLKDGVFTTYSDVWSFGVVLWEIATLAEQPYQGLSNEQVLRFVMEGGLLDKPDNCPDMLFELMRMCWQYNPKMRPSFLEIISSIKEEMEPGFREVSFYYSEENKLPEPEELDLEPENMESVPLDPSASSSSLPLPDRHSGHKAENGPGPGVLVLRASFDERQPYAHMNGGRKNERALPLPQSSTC
assayComment: Inhibition of recombinant IGF1R by TR-FRET assay
pIC50: −log10 of the molar value.
experimentalEndpoint: pIC50

These solved cases illustrate the format of a correct answer.
> print(dat)
                                   compound                                       tgt  experimentalendpoint  result
1  C[C@@H](Oc1ccc2ncccc2c1)c1c(Cl)ccc(F)c1Cl  Insulin-like growth factor 1 receptor (Homo sapiens, UniProt P08069)                 pIC50  < 4.30
2  C[C@@H](Oc1ccc2ncc(/C=C/C(N)=O)cc2c1)c1c(Cl)ccc(F)c1Cl  Insulin-like growth factor 1 receptor (Homo sapiens, UniProt P08069)                 pIC50  < 4.30

Kindly review the next compound as well.
Please report the measured pIC50 for C[C@@H](Oc1ccc2ncc(C3CC3C(N)=O)cc2c1)c1c(Cl)ccc(F)c1Cl (stereo partly drawn) tested on Insulin-like growth factor 1 receptor (Homo sapiens, UniProt P08069). 4.57

---

tgt: Protein kinase C beta type (Homo sapiens, UniProt P05771)
Sequence (P05771 whole entry): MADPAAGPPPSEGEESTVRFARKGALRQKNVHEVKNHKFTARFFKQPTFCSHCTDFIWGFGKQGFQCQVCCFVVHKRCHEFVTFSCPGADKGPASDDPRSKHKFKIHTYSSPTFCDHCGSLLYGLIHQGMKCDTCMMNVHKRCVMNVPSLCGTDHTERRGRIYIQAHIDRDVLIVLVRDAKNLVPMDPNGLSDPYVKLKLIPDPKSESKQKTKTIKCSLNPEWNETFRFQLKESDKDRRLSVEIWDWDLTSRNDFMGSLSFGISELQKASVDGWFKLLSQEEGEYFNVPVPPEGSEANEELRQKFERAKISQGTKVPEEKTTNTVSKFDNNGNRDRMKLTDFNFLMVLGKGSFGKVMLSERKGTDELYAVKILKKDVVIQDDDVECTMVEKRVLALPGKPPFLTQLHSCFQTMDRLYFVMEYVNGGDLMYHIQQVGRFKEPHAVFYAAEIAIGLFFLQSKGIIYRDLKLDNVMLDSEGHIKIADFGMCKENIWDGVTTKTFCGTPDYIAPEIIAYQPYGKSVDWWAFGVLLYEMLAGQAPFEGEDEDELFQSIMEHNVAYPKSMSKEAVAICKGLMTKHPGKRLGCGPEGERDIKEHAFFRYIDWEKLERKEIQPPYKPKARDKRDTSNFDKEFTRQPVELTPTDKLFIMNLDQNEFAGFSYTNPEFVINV
assayComment: Inhibition of recombinant PKCbeta2 by IMAP assay
experimentalEndpoint: IC50

Examples with answers:
> print(dat)
                                   compound   result
1  C[C@@H](Oc1ccc2ncc(/C=C/C(N)=O)cc2c1)c1c(Cl)ccc(F)c1Cl  > 50 µM
2  C[C@@H](Oc1ccc2ncc(C3CC3C(N)=O)cc2c1)c1c(Cl)ccc(F)c1Cl (stereo partly drawn)  > 50 µM

For the compound `C[C@@H](Oc1ccc2ncccc2c1)c1c(Cl)ccc(F)c1Cl` , report IC50. > 50 µM

---

# IC50 per entry
tgt: Cyclin-dependent kinase 2 (Homo sapiens)
assayComment: Inhibition of recombinant CDK2 by IMAP assay

> print(dat)
                                   molecule  experimentalendpoint   result
1  C[C@@H](Oc1ccc2ncc(C3CC3C(N)=O)cc2c1)c1c(Cl)ccc(F)c1Cl (stereo partly drawn)                  IC50  > 50 µM
2  C[C@@H](Oc1ccc2ncc(/C=C/C(N)=O)cc2c1)c1c(Cl)ccc(F)c1Cl                  IC50  > 50 µM

Give the reported IC50 for this molecule. `C[C@@H](Oc1ccc2ncccc2c1)c1c(Cl)ccc(F)c1Cl` > 50 µM

---

Catalogue of pIC50 readings, one per entry.
tgt: Protein kinase C alpha type (Homo sapiens, UniProt P17252)
assayComment: Inhibition of recombinant PKCalpha by IMAP assay
pIC50: −log10 of the molar value.

> print(dat)
                                   compound  result
1  C[C@@H](Oc1ccc2ncc(C3CC3C(N)=O)cc2c1)c1c(Cl)ccc(F)c1Cl (some centres not stated)  < 4.30

// below: pIC50 requested for another compound
Write down pIC50 measured for item `C[C@@H](Oc1ccc2ncc(/C=C/C(N)=O)cc2c1)c1c(Cl)ccc(F)c1Cl` < 4.30

---

tgt: Protein-tyrosine kinase 6 (Homo sapiens)
Sequence (Q13882 whole entry): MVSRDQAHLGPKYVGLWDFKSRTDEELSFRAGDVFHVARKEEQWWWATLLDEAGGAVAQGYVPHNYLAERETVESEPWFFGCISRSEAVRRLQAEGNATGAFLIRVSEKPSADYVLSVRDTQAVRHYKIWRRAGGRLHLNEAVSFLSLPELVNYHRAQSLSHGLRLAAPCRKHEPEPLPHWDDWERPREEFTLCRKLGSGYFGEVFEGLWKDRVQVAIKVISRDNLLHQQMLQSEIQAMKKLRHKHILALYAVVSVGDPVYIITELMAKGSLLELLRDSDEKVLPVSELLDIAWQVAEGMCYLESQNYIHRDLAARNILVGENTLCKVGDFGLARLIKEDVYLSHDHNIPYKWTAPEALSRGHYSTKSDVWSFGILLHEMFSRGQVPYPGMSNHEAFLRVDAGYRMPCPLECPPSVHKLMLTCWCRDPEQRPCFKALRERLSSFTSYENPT
assayComment: Inhibition of recombinant BRK by TR-FRET assay
experimentalEndpoint: IC50

> print(dat)
                                   molecule  experimentalendpoint   result
1  C[C@@H](Oc1ccc2ncccc2c1)c1c(Cl)ccc(F)c1Cl                  IC50  > 50 µM
2  C[C@@H](Oc1ccc2ncc(C3CC3C(N)=O)cc2c1)c1c(Cl)ccc(F)c1Cl (stereo partly drawn)                  IC50  > 50 µM

Continue with the molecule presented below.
Retrieve IC50 measured for `C[C@@H](Oc1ccc2ncc(/C=C/C(N)=O)cc2c1)c1c(Cl)ccc(F)c1Cl` and print it. 32 µM
